Source of measurements: patent US10934263B2

assay: PAMPA membrane permeability assay; assay type: in vitro ADME; settings: PAMPA permeability coefficient, GIT lipid, buffer pH 7.4, 4 hours incubation
endpoint.label: PAMPA (10^−6 cm/s)

Worked cases, PAMPA (10^−6 cm/s) given:
# compound, PAMPA (10^−6 cm/s)
rows = [
    ("CCCn1c(C)cc[n+]1CC(=O)Nc1c(C)cccc1C", "+ (<0.1 10^−6 cm/s)"),
    ("Cc1cccc(C)c1NC(=O)C[n+]1cc(N)cc(C(F)(F)F)c1", "+ (<0.1 10^−6 cm/s)"),
    ("Cc1cccc(C)c1NC(=O)C[n+]1cccc(C(C)C)c1", "++ (0.1-2.0 10^−6 cm/s)"),
    ("Cc1cccc(C)c1NC(=O)C[n+]1cc(CO)n(C(C)C)c1", "++ (0.1-2.0 10^−6 cm/s)"),
]

## Task Could you share which PAMPA (10^−6 cm/s) value was measured for Cc1cccc(C)c1NC(=O)C[n+]1c(C)ccn1C ?
## Result + (<0.1 10^−6 cm/s)

## Task Value lookup for PAMPA (10^−6 cm/s); key = Cc1cccc(C)c1NC(=O)C[n+]1c(C)cc(C)n1C
## Result + (<0.1 10^−6 cm/s)

## Task I would be grateful if you could share the reported PAMPA (10^−6 cm/s) for Cc1cccc(C)c1NC(=O)C[n+]1cccc(OC(C)C)c1 .
## Result + (<0.1 10^−6 cm/s)

## Task Entry under review: CC(=O)Nc1ccc[n+](CC(=O)Nc2c(C)cccc2C)c1 . Reported PAMPA (10^−6 cm/s)?
## Result + (<0.1 10^−6 cm/s)

## Task // query PAMPA (10^−6 cm/s) value for entry Cc1cccc(C)c1NC(=O)C[n+]1cccn1CC(C)C.[Br-] [Compound 27A]
## Result + (<0.1 10^−6 cm/s)
